Target: T1, T2 mechanosensitive channel from Thermoplasma volcanium, tag free (Thermoplasma volcanium)
T1 construct: TVN0821, gene amplified from genomic DNA (DSM 4299 [GSS1*]); 297 amino acids per monomer; Cloned into pNIC28-Bsa4 (TEV site) and pET46 (Enterokinase site); In detergent (0.03 % DDM); also called T2 channel; tag free T2-channel; source: E. coli C43(DE3), purified (DDM solubilised, IMAC, tag cleavage, second IMAC, gel filtration); not shown: His-tag, N-terminal, cleaved
T1 chain: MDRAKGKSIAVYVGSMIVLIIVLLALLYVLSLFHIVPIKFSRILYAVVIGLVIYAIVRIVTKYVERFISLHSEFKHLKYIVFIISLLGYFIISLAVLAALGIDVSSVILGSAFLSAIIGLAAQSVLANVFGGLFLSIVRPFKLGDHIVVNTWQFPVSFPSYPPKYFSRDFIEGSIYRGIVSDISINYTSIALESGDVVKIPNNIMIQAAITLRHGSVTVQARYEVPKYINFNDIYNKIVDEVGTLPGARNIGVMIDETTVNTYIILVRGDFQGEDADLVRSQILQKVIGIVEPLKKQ
Assay: SPR; BIAcore 3000, 25 °C, 20 mM sodium phosphate pH 7.4, 150 mM NaCl, 0.03 % DDM; T2 channel amine-coupled on CM5 (1500 - 2000 RU); nanobodies 0.35 - 86.1 nM injected in triplicates; global fit to a simple bimolecular model, KD = kd/ka
Conditions: both partners purified
measurement_name: koff (s⁻¹)
Use s⁻¹ as the unit, but write only the number.

Below: 3 binders and their reported koff.
1. nanobody 21 (VHH, pHEN6 vector; also called Nb 21; CA-number 3404; source: E. coli WK6 periplasm, purified (IMAC, gel filtration); not shown: His-tag, C-terminal, kept) VHH: QVQLQESGGGLVQPGGSLRLSCAASGRIPFITAMGWYRQAPGRQRELLATVTNSGSTNYADSVKGRFTISRDNAKNTVSLQMNSLKAEDTAVYYCNVRRLGNLSDYWGQGTQVTVSS : 0.171
2. nanobody 16 (VHH, pHEN6 vector; also called Nb 16; CA-number 3398; source: E. coli WK6 periplasm, purified (IMAC, gel filtration); not shown: His-tag, C-terminal, kept) VHH: QVQLQESGGGLVQPGGSLTLSCAASGSPFSFGAMGWYRQAPGKQRELVAIITSGGSTNYADSVKGRFTVSRDNAKNTVYLQMNSLKPEDTAVYYCYHQTAPVADVTWGQGTQVTVSS : 0.0055
3. nanobody 23 (VHH, pHEN6 vector; also called Nb 23; CA-number 3407; source: E. coli WK6 periplasm, purified (IMAC, gel filtration); not shown: His-tag, C-terminal, kept) VHH: QVQLQESGGGLVQPGGFLTLSCAASGSPFSFGAMGWYRQAPGKQRELVAIITRRGSTNYADSVKGRFTVSSDNAKNTVYLQMNSLKPEDTAVYYCYHQTAPVADVTWGQGTQVTVSS : 0.00095

Consider the record given below.
Entry nanobody 15 (VHH, pHEN6 vector; also called Nb 15; CA-number 3397; source: E. coli WK6 periplasm, purified (IMAC, gel filtration); not shown: His-tag, C-terminal, kept) VHH: QVQLQESGGGLVQPGGSLRLSCAASGSISTINHMGWYRQPPGKQRELVAVITRSGSTNYADSVKGRFTISRGNVKNTVYLQMNSVKAEDTAVYYCNAYTEFDRPYNHWGQGTQVTVSS , koff reported as 0.00011

These data points were gathered from paper PMC3804602.
